B1: library; a variant is named by its letters at N, in order (parent)
chain: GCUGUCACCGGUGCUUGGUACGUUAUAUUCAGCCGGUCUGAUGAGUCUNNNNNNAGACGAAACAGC

# Variants of: B1
# PROTOCOL: normalized RNA/DNA level without ligand (relative to sTRSVctl = 100) (log10 (% of sTRSVctl)); HEK293T overexpressing SLC46A1; higher = less ribozyme self-cleavage, higher mRNA level
# CONDITION_SUMMARY: without (6R,S)-folinic acid; ligand present: no
Tag: 1 (yes) if measured normalized RNA/DNA level without ligand (log10) is not below 2, 0 (no) if it is.

RESIDUE_CODES | CLASS
GCUGUCACCGGUGCUUGGUACGUUAUAUUCAGCCGGUCUGAUGAGUCUCUACGGAGACGAAACAGC [CUACGG] | 1 (yes)
GCUGUCACCGGUGCUUGGUACGUUAUAUUCAGCCGGUCUGAUGAGUCUUUAGGGAGACGAAACAGC [UUAGGG] | 0 (no)
GCUGUCACCGGUGCUUGGUACGUUAUAUUCAGCCGGUCUGAUGAGUCUCGGGAGAGACGAAACAGC [CGGGAG] | 0 (no)
GCUGUCACCGGUGCUUGGUACGUUAUAUUCAGCCGGUCUGAUGAGUCUACUCCUAGACGAAACAGC [ACUCCU] | 1 (yes)

[ask] Test whether the variant GCUGUCACCGGUGCUUGGUACGUUAUAUUCAGCCGGUCUGAUGAGUCUUCUGCGAGACGAAACAGC [UCUGCG] records normalized RNA/DNA level without ligand (log10) of 2 or higher.
[reply] 0 (no)

[ask] Test whether the variant GCUGUCACCGGUGCUUGGUACGUUAUAUUCAGCCGGUCUGAUGAGUCUACCGGAAGACGAAACAGC [ACCGGA] records normalized RNA/DNA level without ligand (log10) of 2 or higher.
[reply] 1 (yes)

[ask] Test whether the variant GCUGUCACCGGUGCUUGGUACGUUAUAUUCAGCCGGUCUGAUGAGUCUCGCCGCAGACGAAACAGC [CGCCGC] records normalized RNA/DNA level without ligand (log10) of 2 or higher.
[reply] 1 (yes)

[ask] Test whether the variant GCUGUCACCGGUGCUUGGUACGUUAUAUUCAGCCGGUCUGAUGAGUCUGCCGCGAGACGAAACAGC [GCCGCG] records normalized RNA/DNA level without ligand (log10) of 2 or higher.
[reply] 1 (yes)

[ask] Test whether the variant GCUGUCACCGGUGCUUGGUACGUUAUAUUCAGCCGGUCUGAUGAGUCUUUCUAGAGACGAAACAGC [UUCUAG] records normalized RNA/DNA level without ligand (log10) of 2 or higher.
[reply] 0 (no)

[ask] Test whether the variant GCUGUCACCGGUGCUUGGUACGUUAUAUUCAGCCGGUCUGAUGAGUCUAACGGGAGACGAAACAGC [AACGGG] records normalized RNA/DNA level without ligand (log10) of 2 or higher.
[reply] 0 (no)

[ask] Test whether the variant GCUGUCACCGGUGCUUGGUACGUUAUAUUCAGCCGGUCUGAUGAGUCUAUUACGAGACGAAACAGC [AUUACG] records normalized RNA/DNA level without ligand (log10) of 2 or higher.
[reply] 0 (no)
